- tested.target: T1, biotinylated hTRPV2 (hTRPV2 full-length expression vector with Myc-Biotinylation-His tag, expressed in HEK293 … (human, UniProt Q9Y5S1 1-764, biotinylated on the tag (Myc-Biotin-His tag)))
- T1 construct: also called biotinylated hTRPV2-expressing HEK293 cells; not shown: Myc-Biotinylation-His tag
- T1 sequence: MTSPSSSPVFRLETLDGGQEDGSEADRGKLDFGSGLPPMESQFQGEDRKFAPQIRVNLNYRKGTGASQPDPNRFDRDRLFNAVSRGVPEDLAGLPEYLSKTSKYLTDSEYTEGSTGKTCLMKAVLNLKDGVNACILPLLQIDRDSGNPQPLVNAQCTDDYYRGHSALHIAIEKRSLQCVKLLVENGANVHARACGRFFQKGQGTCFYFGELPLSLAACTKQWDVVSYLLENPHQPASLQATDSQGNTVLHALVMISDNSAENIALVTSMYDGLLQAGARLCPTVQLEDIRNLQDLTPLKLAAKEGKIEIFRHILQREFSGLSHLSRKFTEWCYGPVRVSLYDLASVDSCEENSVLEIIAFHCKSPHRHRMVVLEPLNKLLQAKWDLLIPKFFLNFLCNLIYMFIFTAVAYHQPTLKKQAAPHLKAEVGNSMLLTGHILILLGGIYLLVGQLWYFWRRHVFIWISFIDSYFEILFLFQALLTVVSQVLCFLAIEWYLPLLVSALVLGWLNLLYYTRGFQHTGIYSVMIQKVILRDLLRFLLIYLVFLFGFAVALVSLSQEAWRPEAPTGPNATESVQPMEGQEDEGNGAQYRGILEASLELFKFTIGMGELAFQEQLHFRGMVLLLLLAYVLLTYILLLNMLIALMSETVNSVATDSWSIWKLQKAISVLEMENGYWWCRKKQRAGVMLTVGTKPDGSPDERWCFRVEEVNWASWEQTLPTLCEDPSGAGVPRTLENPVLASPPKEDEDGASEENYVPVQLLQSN
- assay.method.text: flow cytometry on hTRPV2-expressing 293 cells, purified IgG

binder: humanized mAb002 antibody (VH12+VL1) (antibody, V domains shown, Full-length human IgG made in Expi293F cells) VH: QVQLQESGPGLVKPSQSLSLTCTVSGFSLTSFGIHWIRQPPGKGLEWIGVIWSGGITHYNSALMSRVSISKDNSKNQVFLKMNSVTAADTAMYYCAKLYSHPHAMDYWGQGTLVTVSS VL: DIVMTQSPLSLPVTPGEPASISCRSSKSLLHSNGITYLYWYLQKPGQSPQLLIYRMSNLASGVPDRFSGSGSGTDFTLKISRVEAEDVGVYYCMQHLEYPLTFGGGTKLEIK
binding result: binds
//
binder: humanized mAb002 antibody (VH13+VL1) (antibody, V domains shown, Full-length human IgG made in Expi293F cells) VH: QVQLKQSGPGLVAPSQSLSITCTVSGFSLTSFGIHWIRQPPGKGLEWIGVIWSGGITHYNSALMSRLSISKDTSKNQVFLKLSSVTAADTAMYYCAKLYSHPHAMDYWGQGTLVTVSS VL: DIVMTQSPLSLPVTPGEPASISCRSSKSLLHSNGITYLYWYLQKPGQSPQLLIYRMSNLASGVPDRFSGSGSGTDFTLKISRVEAEDVGVYYCMQHLEYPLTFGGGTKLEIK
binding result: binds
//
binder: humanized mAb002 antibody (VH14+VL1) (antibody, V domains shown, Full-length human IgG made in Expi293F cells) VH: QVQLQESGPGLVKPSQSLSLTCTVSGFSLTSFGIHWIRQPPGKGLEWIGVIWSGGITHYNSALMSRVSISKDTSKNQVFLKLSSVTAADTAMYYCAKLYSHPHAMDYWGQGTLVTVSS VL: DIVMTQSPLSLPVTPGEPASISCRSSKSLLHSNGITYLYWYLQKPGQSPQLLIYRMSNLASGVPDRFSGSGSGTDFTLKISRVEAEDVGVYYCMQHLEYPLTFGGGTKLEIK
binding result: binds
